Target: membrane-bound tissue factor (TF) on cells (human, UniProt P13726 33-295); also: test concentration or dose not given here
Experiment: cell-based or functional assay
% kill, MDA-MB-231 cells, anti-kappa-ETA' assay values by entry
Give your result in % as a bare value.

Examples with answers:
>  <binder>
HuMab-TF-044 (antibody, V domains shown) VH: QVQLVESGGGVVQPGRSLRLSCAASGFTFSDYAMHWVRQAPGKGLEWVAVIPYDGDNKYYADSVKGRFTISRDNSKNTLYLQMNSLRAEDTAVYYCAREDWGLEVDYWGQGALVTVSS VL: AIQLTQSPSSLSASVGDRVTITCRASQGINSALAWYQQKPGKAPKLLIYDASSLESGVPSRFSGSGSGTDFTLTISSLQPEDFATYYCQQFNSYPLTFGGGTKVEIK

>  <reported_value>
44

$$$$
>  <binder>
Anti-TF HuMab 011 (antibody, IgG1, V domains shown, full length, fully human monoclonal IgG1,kappa; also called HuMab-TF-011) VH: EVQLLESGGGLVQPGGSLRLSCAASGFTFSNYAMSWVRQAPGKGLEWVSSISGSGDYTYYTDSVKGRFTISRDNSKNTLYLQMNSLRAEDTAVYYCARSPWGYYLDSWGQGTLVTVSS VL: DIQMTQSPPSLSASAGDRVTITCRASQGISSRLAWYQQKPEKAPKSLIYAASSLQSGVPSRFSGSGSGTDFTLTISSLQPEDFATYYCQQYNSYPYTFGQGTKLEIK

>  <reported_value>
88

$$$$
>  <binder>
Anti-TF HuMab 098 (antibody, IgG1, V domains shown, full length, fully human monoclonal IgG1,kappa; also called HuMab-TF-098) VH: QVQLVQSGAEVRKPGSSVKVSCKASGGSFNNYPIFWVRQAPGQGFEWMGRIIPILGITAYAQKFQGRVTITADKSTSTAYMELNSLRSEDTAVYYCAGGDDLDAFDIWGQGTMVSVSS VL: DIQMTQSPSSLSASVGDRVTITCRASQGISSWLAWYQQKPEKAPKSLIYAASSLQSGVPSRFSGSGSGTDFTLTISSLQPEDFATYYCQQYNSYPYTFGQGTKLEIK

>  <reported_value>
96

$$$$
>  <binder>
Anti-TF HuMab 111 (antibody, IgG1, V domains shown, full length, fully human monoclonal IgG1,kappa) VH: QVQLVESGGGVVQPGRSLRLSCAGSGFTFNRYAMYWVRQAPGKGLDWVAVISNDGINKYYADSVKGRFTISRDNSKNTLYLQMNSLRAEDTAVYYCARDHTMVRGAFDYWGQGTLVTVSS VL: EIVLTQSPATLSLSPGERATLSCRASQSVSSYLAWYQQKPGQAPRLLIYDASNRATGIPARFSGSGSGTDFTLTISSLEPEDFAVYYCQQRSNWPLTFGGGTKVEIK

>  <reported_value>
88

$$$$

// switching to the query binder
Identify measured % kill, MDA-MB-231 cells, anti-kappa-ETA' assay corresponding to HuMab-TF-013 (antibody, V domains shown) VH: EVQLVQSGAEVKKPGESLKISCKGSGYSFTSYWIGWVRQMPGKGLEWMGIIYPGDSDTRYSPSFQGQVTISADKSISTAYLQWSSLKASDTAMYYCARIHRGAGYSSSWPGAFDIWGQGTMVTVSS VL: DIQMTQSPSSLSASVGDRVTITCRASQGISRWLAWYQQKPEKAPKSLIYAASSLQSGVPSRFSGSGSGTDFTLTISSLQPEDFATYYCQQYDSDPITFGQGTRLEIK
56
